FYI, the data here is from ChEMBL document CHEMBL2407054.

I'd appreciate it if you could supply MIC values for the items below.
- System: Staphylococcus aureus
- Assay Info: Antibacterial activity against Staphylococcus aureus 241 by M07-A9 CLSI method
- Type: functional

> print(dat)
                              smiles.string  recorded.measurement
1  CC(C)CCC[C@@H](C)[C@H]1CC[C@H]2[C@@H]3[C@H](NCCn4ccnc4)C[C@H]4C[C@H](NCCn5ccnc5)CC[C@]4(C)[C@H]3CC[C@]12C              16 µg/mL
2  CC(C)CCC[C@@H](C)[C@H]1CC[C@H]2[C@@H]3C(=O)C[C@H]4C[C@H](NCCc5ccccn5)CC[C@]4(C)[C@H]3CC[C@]12C            > 32 µg/mL
3  CC(C)CCC[C@@H](C)[C@H]1CC[C@H]2[C@@H]3[C@H](NCCCn4ccnc4)C[C@H]4C[C@H](NCCCn5ccnc5)CC[C@]4(C)[C@H]3CC[C@]12C               4 µg/mL
4  CC(C)CCC[C@@H](C)[C@H]1CC[C@H]2[C@@H]3C(=O)C[C@H]4C[C@H](NCCc5cnc[nH]5)CC[C@]4(C)[C@H]3CC[C@]12C              32 µg/mL
5  CC(C)CCC[C@@H](C)[C@H]1CC[C@H]2[C@@H]3C(=O)C[C@H]4C[C@H](NCCCn5ccnc5)CC[C@]4(C)[C@H]3CC[C@]12C              32 µg/mL

For the next question, use this compound.
Enquiry: Which value of MIC has been reported for "Cc1onc(-c2ccccc2)c1C(=O)N[C@@H]1C(=O)N2[C@@H]1SC(C)(C)[C@@H]2C(=O)O" in the records?
Return: > 32 µg/mL

* * *

- Test system: Bacillus subtilis
- Assay Info: Antibacterial activity against Bacillus subtilis ATCC 6633 by M07-A9 CLSI method
- Type: functional
I'd appreciate it if you could supply MIC values for the items below.
Give bare numbers, in µg/mL.

Worked cases, answers included:
Smiles String	Readout Label	Recorded Measurement
Cc1onc(-c2ccccc2)c1C(=O)N[C@@H]1C(=O)N2[C@@H]1SC(C)(C)[C@@H]2C(=O)O	MIC	16
CN[C@H](CC(C)C)C(=O)N[C@H]1C(=O)N[C@@H](CC(N)=O)C(=O)N[C@H]2C(=O)N[C@H]3C(=O)N[C@H](C(=O)N[C@H](C(=O)O)c4cc(O)cc(O)c4-c4cc3ccc4O)[C@H](O)c3ccc(c(Cl)c3)Oc3cc2cc(c3O[C@@H]2O[C@H](CO)[C@@H](O)[C@H](O)[C@H]2O[C@H]2C[C@](C)(N)[C@H](O)[C@H](C)O2)Oc2ccc(cc2Cl)[C@H]1O	MIC	2
CC(C)CCC[C@@H](C)[C@H]1CC[C@H]2[C@@H]3C(=O)C[C@H]4C[C@H](NCCc5ccccn5)CC[C@]4(C)[C@H]3CC[C@]12C	MIC	32

Enquiry: Which value of MIC has been reported for "CC(C)CCC[C@@H](C)[C@H]1CC[C@H]2[C@@H]3[C@H](NCc4ccccn4)C[C@H]4C[C@H](NCc5ccccn5)CC[C@]4(C)[C@H]3CC[C@]12C" in the records?
Return: 2

* * *

- Test system: Staphylococcus epidermidis
- Assay Info: Antibacterial activity against Staphylococcus epidermidis 887E by M07-A9 CLSI method
- Type: functional
Readout Label: MIC (µg/mL)
Answers are plain numbers, in µg/mL.

> print(dat)
                              smiles.string  readout.label  units  recorded.measurement
1  CC(C)CCC[C@@H](C)[C@H]1CC[C@H]2[C@@H]3C(=O)C[C@H]4C[C@H](NCCCn5ccnc5)CC[C@]4(C)[C@H]3CC[C@]12C            MIC  µg/mL                    16
2  CC(C)CCC[C@@H](C)[C@H]1CC[C@H]2[C@@H]3C(=O)C[C@H]4C[C@H](NCCn5ccnc5)CC[C@]4(C)[C@H]3CC[C@]12C            MIC  µg/mL                    16

Enquiry: Which value of MIC has been reported for "CC(C)CCC[C@@H](C)[C@H]1CC[C@H]2[C@@H]3[C@H](NCCc4ccccn4)C[C@H]4C[C@H](NCCc5ccccn5)CC[C@]4(C)[C@H]3CC[C@]12C" in the records?
Return: 8
